Ref: ChEMBL document CHEMBL3585246

- System: ACE (rabbit lung)
- procedure.summary: Ratio of IC50 for human A549 cells to IC50 for rabbit lung ACE
- Assay type: cell-based
- experimental.conditions: read-out: Ratio IC50
experimental.endpoint: selectivity ratio
Give bare numbers.

CCCCc1nc(Cl)c(C(=O)N[C@@H](CCSC)C(=O)O)n1C 1000

Give me selectivity ratio for each of these compounds, listed below.
1. CCCCc1nc(Cl)c(C(=O)N[C@H](C(=O)O)[C@H](C)CC)n1C
2. CCCCc1nc(Cl)c(C(=O)N[C@@H](Cc2ccccc2)C(=O)O)n1C

A:
1. 1000
2. 1000

Give me selectivity ratio for each of these compounds, listed below.
1. CCCCc1nc(Cl)c(C(=O)N[C@@H](Cc2ccccc2)C(=O)OC)n1C
2. CCCCc1nc(Cl)c(C(=O)N[C@@H](Cc2c[nH]c3ccccc23)C(=O)OC)n1C

A:
1. 1000
2. 1000
